TGI values by entry
Tested on: CAKI-1 renal
protocolText: NCI tumour cell line growth inhibition, 48 h
API: value field is a number in µM; no unit string.

compound | measurementTarget | observedResult
O=[N+]([O-])c1cc(C=NC23CC4CC(CC(C4)C2)C3)ccc1Cl | CAKI-1 renal | 18.7

Lookup result for CC(C)=CCC(O)C1=CC(=O)c2c(O)ccc(O)c2C1=O (configuration not stated) ; measured TGI: 0.986

Lookup result for "Oc1ccc(-c2nc3ccc(Br)cc3s2)cc1" ; measured TGI: 33.7

Lookup result for "Nc1n[nH]c2cccc(C#Cc3cccc(C(=O)Nc4ccc(CN5CCOCC5)c(C(F)(F)F)c4)c3)c12" ; measured TGI: 11.4

Lookup result for "CCCCCC1=CC(=O)C1(Cl)Cl" ; measured TGI: 23.3

Lookup result for "Cc1ccc(-n2c3nc(=O)[nH]c(=O)c-3cc3cc([N+](=O)[O-])ccc32)cc1" ; measured TGI: 39.2

Lookup result for "N#C/C(=C\c1cccc(Cl)c1Cl)c1ccccc1" ; measured TGI: 77.7

Lookup result for "Cc1cc(-c2nc3ccc(F)cc3s2)ccc1NC(=O)[C@H](C)N" ; measured TGI: 22.1

Lookup result for "O=C(OCc1ccccc1)N1CCNCCN(C(=O)OCc2ccccc2)CCNCC1" ; measured TGI: 55.1

###

System: CCRF-CEM leukemia
protocolText: NCI tumour cell line growth inhibition, 48 h
TGI values by entry

Lookup result for "CN(C)c1cc(NN=C(c2ccc(O)cc2)c2ccc(O)cc2)c([N+](=O)[O-])cc1[N+](=O)[O-]" ; measured TGI: 17.9 µM

Lookup result for "C=CC[C@H](C[C@H](C[C@H](C[C@H](C[C@H](C[C@H](C[C@H](C[C@H](C[C@H](C[C@H](CCCCC)OC)OC)OC)OC)OC)OC)OC)OC)OC)OC" ; measured TGI: > 100 µM

Lookup result for Nc1nc(SCCC/C=C/I)nc2c1ncn2C1OC(COP(=O)(O)O)C(O)C1O (stereo not given) ; measured TGI: > 100 µM

Lookup result for CC(C)c1cc2c(cc1S(=O)(=O)O)[C@@]1(C)CCC[C@@](C)(C(=O)O)C1CC2 (stereo not given in full) ; measured TGI: > 100 µM

Lookup result for "Cc1cc2c(C)[nH]nc2c(C(=O)O)c1C" ; measured TGI: > 100 µM

Lookup result for COc1ccc(C2[C@@H](c3ccccc3)C(=O)N2c2cc(OC)c(OC)c(OC)c2)cc1F (stereo not given in full) ; measured TGI: > 100 µM

Lookup result for C/C(=C\CBr)CCC(Br)C(C)(C)Br (stereo not given) ; measured TGI: > 100 µM

Lookup result for "Cc1ccc(NC(=O)c2ccc(OP(=O)(O)Nc3ccc(C)cc3)cc2)cc1" ; measured TGI: > 100 µM

Lookup result for "Cc1cc(-c2nc3ccc(F)cc3s2)ccc1NC(=O)[C@H](C)N" ; measured TGI: 6.23 µM

Lookup result for "CCN(CC)C(=S)N/N=C/c1cc([N+](=O)[O-])ccc1O" ; measured TGI: 8.06 µM

###

System: SW-620 colon
protocolText: NCI tumour cell line growth inhibition, 48 h; in the data active = GI50 below about 0.43 µM; inactive = the rest
Bench note: report the call from 1 (active), 0 (inactive)

Recorded results for 4 compounds are shown here.
compound | measurementTarget | classification
COc1ccc(-c2cn[nH]c2-c2cc(OC)c(OC)c(OC)c2)cc1 | SW-620 colon | 1
COC[C@H]1Cn2cc(-c3nc(Nc4ccnn4C)ncc3C)nc2C(=O)N1Cc1ccc(F)c(F)c1 | SW-620 colon | 1
CCN1C(=O)N(c2ccccc2)C2NC(=S)N(/N=C/C=C/c3ccccc3OC)C21 (stereo not given) | SW-620 colon | 1
O=C(Oc1ccc(Cl)cc1)c1ccccc1Nc1ccnc(C(F)(F)F)c1 | SW-620 colon | 0

Enquiry: Please let me know the test result on file for "Nc1c(C(=O)Nc2cccc(C(F)(F)F)c2)sc2nc3c(cc12)CCCCC3" .
Return: 0

###

Tested on: MOLT-4 leukemia
protocolText: NCI tumour cell line growth inhibition, 48 h; in the data active means GI50 below about 0.43 µM; inactive means the rest
Bench note: report the call from active, inactive

Recorded results for 4 compounds are shown here.
compound | classification
COc1ccc(/C=N/NC(=O)c2cccc3cc[nH]c23)cc1O | inactive
Cc1cc(I)cc(CN(CCCN(C)C)C(C)C)c1O | inactive
O=C1c2cc3c(cc2-c2c1c1ccc(F)cc1c(=O)n2C[C@H](O)[C@@H](O)[C@H](O)CO)OCO3 | active
CCCCCCCCCCCCC(O)c1ccc(C#CCCCCCCCCCO)o1 (stereo not given) | inactive

Enquiry: Please let me know the test result on file for COc1ccc2nc3cc(Cl)ccc3c(NCCNCC(C)O)c2c1 (stereo not given) .
Return: inactive

Enquiry: Please let me know the test result on file for "c1ccc(Sc2ncnc3ccccc23)cc1" .
Return: inactive

Enquiry: Please let me know the test result on file for "N[C@@H]1CCCC[C@@H]1N.O=P([O-])([O-])CN(CCN(CP(=O)([O-])[O-])CP(=O)([O-])[O-])CP(=O)([O-])[O-].[Pt+2]" .
Return: inactive

Enquiry: Please let me know the test result on file for "CC(C)[C@@H]1C=C2CC[C@H]3[C@](C)(CN)CCC[C@]3(C)[C@H]2CC1" .
Return: inactive

Enquiry: Please let me know the test result on file for "CCN(Cc1ccc(F)cc1)c1cc(Cl)c(CO)c(Cl)c1" .
Return: inactive

Enquiry: Please let me know the test result on file for "COc1cc(/C(C#N)=C/c2nc3c(N4CCOCC4)nc(Cl)nc3n2C)cc(OC)c1OC" .
Return: active

###

System: CAKI-1 renal
protocolText: NCI tumour cell line growth inhibition, 48 h
attributeMeasured: TGI (µM)
API: value field is a number in µM; no unit string.

Known results for compounds:
compound | TGI (µM)
CC1(C)O[C@H]2OC(CO[Si](C)(C)C(C)(C)C)C(N=[N+]=[N-])[C@H]2O1 (stereo not given in full) | 42.5
C(=C(c1ccc(OC2CCCCO2)cc1)c1ccc(OC2CCCCO2)cc1)c1ccccc1 (stereo not given) | 1.92

Lookup result for COc1cccc(C(=O)NC(c2ccc(C)cc2)c2cc(Cl)c3cccnc3c2O)c1 (stereo not given) ; measured TGI: 15.8

Lookup result for "COc1ccc(CN2C(=O)/C(=C\c3cc(OC)c(OC)c(OC)c3)c3ccccc32)cc1" ; measured TGI: 20.3

###

TGI values by entry
System: SNB-19 CNS
protocolText: NCI tumour cell line growth inhibition, 48 h

molecule | measurementTarget | TGI
COP(=O)(OC)C1=c2c(C)noc2=C2C=COC2C1=O (stereo unspecified) | SNB-19 CNS | > 100 µM
CCN(C(=O)N1CCN(c2cc3c(cc2F)c(=O)c(C(=O)O)cn3C2CC2)CC1)c1nc(-c2ccc(Cl)cc2)cs1 | SNB-19 CNS | 49.5 µM
CC(C)(C)c1cc2ccc(C(N)=O)cc2c(=O)[nH]1 | SNB-19 CNS | > 100 µM
Nc1nc(SCCC/C=C/I)nc2c1ncn2C1OC(COP(=O)(O)O)C(O)C1O (stereo unspecified) | SNB-19 CNS | > 100 µM

Lookup result for "C#CCn1c(=O)c2ccccc2n(CC#C)c1=O" ; measured TGI: > 10 µM

Lookup result for "Nn1c(-c2ccccc2)n[nH]c1=O" ; measured TGI: > 100 µM

###

TGI values by entry
Test system: A498 renal
protocolText: NCI tumour cell line growth inhibition, 48 h

Known results for molecules:
smilesData | observedResult
CCN(C(=O)N1CCN(c2cc3c(cc2F)c(=O)c(C(=O)O)cn3C2CC2)CC1)c1nc(-c2ccc(Cl)cc2)cs1 | 1.6 µM
Cn1ccc2c3c(Oc4ccc(NC(N)=O)cc4)ccnc3ccc21 | > 100 µM
NC(=O)C(=Cn1c(=S)[nH]c2ccc([N+](=O)[O-])cc21)C(N)=O | > 100 µM

Could you now consider this next molecule?
Value (TGI, A498 renal) for record "Cc1oc2c(cc(O)c3cc(O)ccc32)c2cccc1-2" = > 100 µM

###

System: CCRF-CEM leukemia
protocolText: NCI tumour cell line growth inhibition, 48 h
GI50 values by entry

Known results for compounds:
compound | GI50
COc1cc(/C(C#N)=C/c2nc3c(N4CCOCC4)nc(Cl)nc3n2C)cc(OC)c1OC | < 10 nM
c1ccc(Sc2ncnc3ccccc23)cc1 | 2900 nM
CCn1c(-c2nonc2N)nc2c(C#CC(C)(C)O)nc(OC[C@@H](N)c3ccccc3)cc21 | 4080 nM
O=C(Oc1ccc(Cl)cc1)c1ccccc1Nc1ccnc(C(F)(F)F)c1 | 4940 nM
COc1cccc(C(=O)NC(c2ccc(C)cc2)c2cc(Cl)c3cccnc3c2O)c1 (stereo not given) | 366 nM

Could you now consider this next compound?
Lookup result for "O=C(/C(=C/c1ccc([N+](=O)[O-])cc1)SCc1ccccc1)c1ccc(Cl)cc1" ; measured GI50: 2120 nM
